Assay: gradient 5% acetonitrile 3 min, to 50% in 2 min, to 85% in 15 min, held 3 min, 100 µL/min
Conditions: column: Zorbax Extend-C18 2.1 x 50 mm; eluents: water / acetonitrile, 0.1% formic acid
property.name: RP-LC retention time (s)

Known RP-LC retention time results, listed for orientation:
>  <compound>
O=C(c1nnn(-c2ccc(Cl)cc2)c1-c1cccnc1)N1CCSCC1

>  <RP-LC retention time (s)>
780

$$$$
>  <compound>
OCCNCCNCc1ccc(-c2ccccc2F)o1

>  <RP-LC retention time (s)>
563

$$$$

I: CCC(=O)N1CCc2cc(N3CC(C(=O)N4CCC(C)CC4)CC3=O)ccc21 (stereo not given)
II: CCc1ccc(-c2noc(Cn3cnc4c(cnn4-c4cc(Cl)ccc4C)c3=O)n2)cc1
Prompt: Compare I and II and name the one whose reported RP-LC retention time is smaller. Which one? Tell me its label.
Completion: I
(I: 726 s, II: 1210 s)

a: Fc1ccc(CN2CCC[C@H]2c2nc(C3CCOCC3)n[nH]2)c(Cl)c1
b: Cc1cc(F)ccc1S(=O)(=O)NCCc1ccsc1
Prompt: Lower value for measured RP-LC retention time? Options: a , b API: response body contains the label of the selected item.
Completion: a

---

Test: gradient 5% acetonitrile 3 min, to 50% in 2 min, to 85% in 15 min, held 3 min, 100 µL/min
Settings: column: Zorbax Extend-C18 2.1 x 50 mm; eluents: water / acetonitrile, 0.1% formic acid
property.name: RP-LC retention time (s)

A: Cc1nnc(NC(=O)C2CCN(C(=O)c3cccc(F)c3)CC2)s1
B: Cc1ccc2c(c1)OCC(=O)N2Cc1nc(-c2ccc(C(C)(C)C)cc2)no1
Prompt: Kindly compare A with B and tell me which has the lower RP-LC retention time figure. Refer to your chosen item by its label in the answer.
Completion: A
(A: 661 s, B: 1290 s)

---

Test: gradient 5% acetonitrile 3 min, to 50% in 2 min, to 85% in 15 min, held 3 min, 100 µL/min
Conditions: column: Zorbax Extend-C18 2.1 x 50 mm; eluents: water / acetonitrile, 0.1% formic acid
property.name: RP-LC retention time (s)

>  <compound>
CCn1nnc(NCc2ccc(-c3cc(Cl)cc(Cl)c3)o2)n1

>  <measurement.units>
s

>  <RP-LC retention time>
1140

$$$$
>  <compound>
Cc1csc(-c2cc(S(=O)(=O)NCC3CCCCC3)cn2CC(=O)N2CCCCC2)n1

>  <measurement.units>
s

>  <RP-LC retention time>
1100

$$$$
>  <compound>
O=C(CNC(=O)c1ccc(F)cc1)Nc1nc2ccccc2[nH]1

>  <measurement.units>
s

>  <RP-LC retention time>
608

$$$$

A: COc1ccc(S(=O)(=O)Nc2ccc(-c3cn4ccc(C)nc4n3)cc2)cc1C
B: CN(C)c1ccc(/C=C(\C#N)C(=O)c2ccccc2)cc1
Prompt: Hi there! Just curious which has the higher RP-LC retention time between A and B . Give the chosen item's label as your response.
Completion: B

---

Assay: gradient 5% acetonitrile 3 min, to 50% in 2 min, to 85% in 15 min, held 3 min, 100 µL/min
Conditions: column: Zorbax Extend-C18 2.1 x 50 mm; eluents: water / acetonitrile, 0.1% formic acid
property.name: RP-LC retention time (s)

Check out these entries, answers already filled in.
>  <compound>
COc1ccc(-c2noc(C3CCCN3C(=O)c3cccc(OC)c3)n2)cc1 (stereo not given)

>  <measurement.units>
s

>  <RP-LC retention time>
937

$$$$
>  <compound>
O=C(Cc1cn2cc(F)ccc2n1)Nc1ccc(F)cc1

>  <measurement.units>
s

>  <RP-LC retention time>
594

$$$$
>  <compound>
COc1ccc(OC)c(NC(=O)N2CCC(N3CCN(Cc4ccccc4)C(=O)C3=O)CC2)c1

>  <measurement.units>
s

>  <RP-LC retention time>
746

$$$$
>  <compound>
CCNc1cc(N2CCC(CCC(=O)Nc3ccc(OC)cc3OC)CC2)ncn1

>  <measurement.units>
s

>  <RP-LC retention time>
665

$$$$
>  <compound>
COc1ccc(-c2nnc(-c3ccc(C)c(S(=O)(=O)N4CCCC4)c3)o2)cc1OC

>  <measurement.units>
s

>  <RP-LC retention time>
937

$$$$

P: CCc1cc(C(=O)Cc2nc3ccccc3n2C)c(O)cc1O
Q: O=C(CN1C(=O)C(C(=O)N2CCCC2)Sc2ccccc21)N1CCN(c2ccccc2)CC1 (stereo not given)
Prompt: # returns the entry with the larger RP-LC retention time; inputs P and Q # respond with the chosen item's label
Completion: Q
(Q: 842 s, P: 587 s)

P: Cc1ccc2[nH]cc(CCN3CC(C(=O)Nc4ccc(F)cc4F)CC3=O)c2c1 (stereo not given)
Q: Cc1oncc1CN1CCN(C(=O)c2c(F)cccc2Cl)CC1
Prompt: // which entry has the larger RP-LC retention time value, P or Q ? Answer by stating the label of the chosen item.
Completion: P

---

Test: gradient 5% acetonitrile 3 min, to 50% in 2 min, to 85% in 15 min, held 3 min, 100 µL/min
Settings: column: Zorbax Extend-C18 2.1 x 50 mm; eluents: water / acetonitrile, 0.1% formic acid
property.name: RP-LC retention time (s)

Examples with answers:
>  <compound>
Cc1ccc2[nH]cc(CCN3CC(C(=O)Nc4ccccc4)CC3=O)c2c1 (stereo not given)

>  <observed.value>
801

$$$$
>  <compound>
O=C(CNC(=O)c1cc2ccccc2o1)Nc1cccc(C(F)(F)F)c1

>  <observed.value>
928

$$$$
>  <compound>
Cc1oc2ccn(Cc3ccc(F)cc3)c(=O)c2c1C(=O)NCCN(C)C1CCCCC1

>  <observed.value>
762

$$$$
>  <compound>
CCN1C(=O)c2cccc3c(NC(=O)CSc4ccc(Cl)cc4)ccc1c23

>  <observed.value>
861

$$$$
>  <compound>
Cc1nnc(C2CCCCCN2C(=O)CCc2c(C)nn(C)c2C)o1 (stereo not given)

>  <observed.value>
608

$$$$

1: Cc1ccc(CNC(=O)N2CCC(c3cc(N)on3)CC2)cc1
2: COC(=O)c1ccc2c(=O)n(CCc3ccccc3)c(N3CCSCC3)nc2c1
Prompt: For the pair 1 and 2 , which entry has the numerically smaller recorded RP-LC retention time? Please respond with the label that marks your chosen entry.
Completion: 1

---

Assay: gradient 5% acetonitrile 3 min, to 50% in 2 min, to 85% in 15 min, held 3 min, 100 µL/min
Details: column: Zorbax Extend-C18 2.1 x 50 mm; eluents: water / acetonitrile, 0.1% formic acid
property.name: RP-LC retention time (s)

>  <structure.string>
Cc1ccc2c(=O)c(C(=O)N3CCCC3)cn(CC(=O)Nc3ccccc3C)c2n1

>  <property.name>
RP-LC retention time

>  <observed.value>
692

$$$$
>  <structure.string>
CSc1ccc(-c2nc3cc(C)ccn3c2Nc2ccc3c(c2)OCO3)cc1

>  <property.name>
RP-LC retention time

>  <observed.value>
748

$$$$
>  <structure.string>
Cc1cc(C(F)(F)F)nc(Nc2nc(C)c3ccccc3n2)n1

>  <property.name>
RP-LC retention time

>  <observed.value>
679

$$$$
>  <structure.string>
CCc1ccccc1NC(=O)c1cc(C)n2nccc2n1

>  <property.name>
RP-LC retention time

>  <observed.value>
1030

$$$$
>  <structure.string>
Cc1ccc(C(=O)Nc2cccn3nc(C(C)C)nc23)cc1

>  <property.name>
RP-LC retention time

>  <observed.value>
950

$$$$

---

Assay: gradient 5% acetonitrile 3 min, to 50% in 2 min, to 85% in 15 min, held 3 min, 100 µL/min
Details: column: Zorbax Extend-C18 2.1 x 50 mm; eluents: water / acetonitrile, 0.1% formic acid
property.name: RP-LC retention time (s)

>  <molecule>
O=C(CN1C(=O)CCC1=O)Nc1nc(-c2ccc(Cl)cc2Cl)cs1

>  <property.name>
RP-LC retention time

>  <observed.value>
850

$$$$
>  <molecule>
O=C(NCCCc1ccccc1)c1nc(Cn2c(=O)oc3ccccc32)no1

>  <property.name>
RP-LC retention time

>  <observed.value>
952

$$$$
>  <molecule>
COc1ccc(CCC(=O)N2CCCC2c2c(C)noc2C)cc1 (stereo not given)

>  <property.name>
RP-LC retention time

>  <observed.value>
868

$$$$
>  <molecule>
Cc1cc(C)c(NC(=O)COc2cccc3c(=O)n(C)ccc23)c(C)c1

>  <property.name>
RP-LC retention time

>  <observed.value>
805

$$$$
>  <molecule>
COC(=O)c1c(C)[nH]c(C(=O)N2CCC(CC(=O)NCCC(C)C)CC2)c1C

>  <property.name>
RP-LC retention time

>  <observed.value>
716

$$$$

---

Experiment: gradient 5% acetonitrile 3 min, to 50% in 2 min, to 85% in 15 min, held 3 min, 100 µL/min
Settings: column: Zorbax Extend-C18 2.1 x 50 mm; eluents: water / acetonitrile, 0.1% formic acid
property.name: RP-LC retention time (s)

Here are 5 molecules together with their reported answers.
>  <molecule>
Cc1ccc(C2CC(=O)c3cnc(N4CCN(c5ccccc5)CC4)nc3C2)cc1 (centres undefined)

>  <measurement.units>
s

>  <observed.value>
1340

$$$$
>  <molecule>
COC(=O)c1ccc(CSc2nnc(CNC(=O)c3ccccc3)o2)o1

>  <measurement.units>
s

>  <observed.value>
683

$$$$
>  <molecule>
O=C(Cn1ccc2sccc2c1=O)Nc1ccc(Cl)cc1F

>  <measurement.units>
s

>  <observed.value>
802

$$$$
>  <molecule>
Cc1cccc(NC(=O)N2CCCC(C)(C(=O)NCc3ccc(F)cc3)C2)c1C (centres undefined)

>  <measurement.units>
s

>  <observed.value>
929

$$$$
>  <molecule>
COc1ccc(CCNC(=O)C2CCCN(S(=O)(=O)c3ccc(OC)c(Cl)c3)C2)cc1 (centres undefined)

>  <measurement.units>
s

>  <observed.value>
938

$$$$

I: CC(NC(=O)Nc1ccc(Br)cc1)C(=O)N1CCc2ccccc21 (centres undefined)
II: CN(C)C[C@@H]1CN(C2CCOCC2)C[C@H]1NC(=O)C1(c2ccccc2)CC1
Prompt: Which is greater in RP-LC retention time, the first item I or the second item II ? Give the label under which the chosen entry appears.
Completion: I
